Source of measurements: ChEMBL document CHEMBL2380196

Test system: SK-BR-3
ASSAY NAME: Antiproliferative activity against human SKBR3 cells after 72 hrs by MTT assay
Format: functional, cell-based
CONDITIONS USED: SK-BR-3, 72 h, read-out: LC50 (the source's name)
REPORTED METRIC: CC50 (µM)
State the answer as a number, implicitly in µM.

Example molecules with recorded CC50:
- STRUCTURE STRING: "Cl.Cl.c1cc(-c2nc3ccc(C4=NCCN4)cc3s2)cc(-c2nc3ccc(C4=NCCN4)cc3s2)c1"
  UNITS LABEL: "µM"
  CC50: 0.87
- STRUCTURE STRING: "Cl.Cl.c1cc2nc(-c3ccc(-c4nc5ccc(C6=NCCN6)cc5s4)cc3)sc2cc1C1=NCCN1"
  UNITS LABEL: "µM"
  CC50: 8.07

Record c1ccc(-c2nc3ccc(C4=NCCN4)cc3s2)c(-c2nc3ccc(C4=NCCN4)cc3s2)c1 . Reported CC50: 67.9
